target: T1, Mu HER3: CD33-[Murine HER3, residues 20-643]-TAG (mouse, UniProt Q61526 20-643); assay: solution equilibrium titration (SET), IgG, ECL read-out
T1 construct: also called mu HER3-Tag; not shown: C-terminal TAG (e.g. FLAG TAG)
pKd: −log10 of the molar value.
// no (0) strictly below 9 in pKd; yes (1) otherwise

Enquiry: Record MOR14534 (antibody, human IgG1, kappa, V domains shown, Tested as IgG) VH: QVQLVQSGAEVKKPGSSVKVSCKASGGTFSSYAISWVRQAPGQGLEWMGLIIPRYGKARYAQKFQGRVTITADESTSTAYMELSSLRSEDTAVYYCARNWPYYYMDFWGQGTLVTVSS VL: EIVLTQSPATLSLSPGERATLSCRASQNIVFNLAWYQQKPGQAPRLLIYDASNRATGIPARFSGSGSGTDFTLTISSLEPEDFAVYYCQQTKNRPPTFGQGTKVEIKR ; criterion: pKd no lower than 9. Met?
Return: no (0)

Enquiry: Quick check, pKd >= 9? MOR12615 (antibody, human IgG1, lambda, V domains shown, Tested as IgG) VH: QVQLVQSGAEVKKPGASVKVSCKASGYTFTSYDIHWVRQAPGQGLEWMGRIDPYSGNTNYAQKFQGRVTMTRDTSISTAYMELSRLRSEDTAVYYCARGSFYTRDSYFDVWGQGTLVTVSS VL: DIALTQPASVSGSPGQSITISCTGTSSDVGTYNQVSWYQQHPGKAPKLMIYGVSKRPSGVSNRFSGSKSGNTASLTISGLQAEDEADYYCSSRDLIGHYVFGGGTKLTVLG
Return: yes (1)

Enquiry: Exam item: decide whether the reported pKd for MOR12514 (antibody, human IgG1, lambda, V domains shown, Tested as IgG) VH: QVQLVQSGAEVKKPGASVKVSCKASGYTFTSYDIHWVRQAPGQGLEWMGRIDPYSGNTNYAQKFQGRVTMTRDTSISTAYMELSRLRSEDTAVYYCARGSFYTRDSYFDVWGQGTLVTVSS VL: DIALTQPASVSGSPGQSITISCTGTSSDVGTYNQVSWYQQHPGKAPKLMIYGVSKRPSGVSNRFSGSKSGNTASLTISGLQAEDEADYYCQVRDMSLFDVFGGGTKLTVLG is at least 9.
Return: no (0)

Enquiry: Say whether MOR12604 (antibody, V domains shown, Tested as IgG) VH: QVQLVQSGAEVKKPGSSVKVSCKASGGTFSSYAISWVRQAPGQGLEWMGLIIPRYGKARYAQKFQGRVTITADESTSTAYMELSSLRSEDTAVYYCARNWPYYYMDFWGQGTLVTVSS VL: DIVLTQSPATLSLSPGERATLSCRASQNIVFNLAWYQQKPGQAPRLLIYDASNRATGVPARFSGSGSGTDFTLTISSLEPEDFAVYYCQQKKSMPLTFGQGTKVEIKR shows pKd of 9 or more.
Return: no (0)

Enquiry: State whether the measured pKd reaches 9, counting equality as reaching it, for MOR12516 (antibody, human IgG1, lambda, V domains shown, Tested as IgG) VH: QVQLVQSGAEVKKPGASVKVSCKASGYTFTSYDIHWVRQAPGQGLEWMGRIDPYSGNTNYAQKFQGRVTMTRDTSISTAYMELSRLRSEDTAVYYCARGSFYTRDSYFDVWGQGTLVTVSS VL: DIALTQPASVSGSPGQSITISCTGTSSDVGTYNQVSWYQQHPGKAPKLMIYGVSKRPSGVSNRFSGSKSGNTASLTISGLQAEDEADYYCQSRDTYRPVKVFGGGTKLTVLG
Return: no (0)

New cases:
Enquiry: Reported pKd reaches at least 9 for MOR14538 (antibody, human IgG1, lambda, V domains shown, Tested as IgG) VH: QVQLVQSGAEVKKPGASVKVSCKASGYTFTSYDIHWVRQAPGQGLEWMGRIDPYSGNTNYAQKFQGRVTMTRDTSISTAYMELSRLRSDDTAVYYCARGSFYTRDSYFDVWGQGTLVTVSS VL: QSALTQPASVSGSPGQSITISCTGTSSDVGTYNQVSWYQQHPGKAPKLMIYGVSKRPSGVSNRFSGSKSGNTASLTISGLQAEDEADYYCASADHSYHTVFGGGTKLTVLG ?
Return: yes (1)

Enquiry: Textbook exercise: given the entry MOR12605 (antibody, human IgG1, kappa, V domains shown, Tested as IgG) VH: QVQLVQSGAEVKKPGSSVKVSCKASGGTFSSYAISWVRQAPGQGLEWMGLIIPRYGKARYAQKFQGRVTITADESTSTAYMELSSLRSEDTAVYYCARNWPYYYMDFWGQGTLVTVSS VL: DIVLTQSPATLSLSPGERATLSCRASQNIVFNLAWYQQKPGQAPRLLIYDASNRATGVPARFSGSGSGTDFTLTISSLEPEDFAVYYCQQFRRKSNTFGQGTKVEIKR , state whether its pKd is greater than or equal to 9.
Return: no (0)
